Target: Glutamate [NMDA] receptor
Assay: The compound was tested for the inhibitory activity against N-methyl-D-aspartate glutamate receptor from mid-frontal region of human brain by measuring spermine-enhanced [3H]- MK-801 binding
MEASUREMENT KIND: pIC50
Notebook: values listed as pIC50 are -log10 of the concentration (mol/L).

Reference set (3 entries):
H-GEEELQEN-NH2 = 7.03
H-GEEEYQANQELIREKSN-NH2 = 6.26
H-GEEELQEDQELIREKSD-NH2 = 7.70

With those in mind, consider the next substance.
The substance H-GEEEYQKNQELIREKSN-NH2 showed pIC50 equal to 7.00

* * *

Biological target: Glutamate [NMDA] receptor
Assay: The compound was tested for the inhibitory activity against N-methyl-D-aspartate glutamate receptor from mid-frontal region of human brain by measuring spermine-enhanced [3H]- MK-801 binding
MEASUREMENT KIND: pIC50
Scale explanation: pIC50 corresponds to minus log10 of a concentration expressed in moles per litre.

CC[C@@H](C)[C@H](NC(=O)[C@H](CC(C)C)NC(=O)[C@@H]1CCC(=O)NCCCC[C@H](NC(=O)[C@H](CCC(N)=O)NC(=O)[C@H](CC(C)C)NC(=O)[C@H](CCC(=O)O)NC(=O)[C@H](CCC(=O)O)NC(=O)[C@H](CCC(=O)O)NC(=O)CN)C(=O)N[C@@H](CC(N)=O)C(=O)N[C@H](CCC(N)=O)C(=O)N1)C(=O)N[C@@H](CCCN=C(N)N)C(=O)N[C@@H](CCC(=O)O)C(=O)N[C@@H](CCCCN)C(=O)N[C@@H](CO)C(=O)N[C@@H](CC(N)=O)C(N)=O = 5.07

Turning to the following compound.
GET /value?item= CC[C@H](C)[C@H](NC(=O)[C@H](CC(C)C)NC(=O)[C@H](CCC(=O)O)NC(=O)[C@H](CCC(N)=O)NC(=O)[C@H](CC(N)=O)NC(=O)[C@H](C)NC(=O)[C@H](CCC(N)=O)NC(=O)[C@H](CC(C)C)NC(=O)[C@H](CCC(=O)O)NC(=O)[C@H](CCC(=O)O)NC(=O)[C@H](CCC(=O)O)NC(=O)CN)C(=O)N[C@@H](CCCN=C(N)N)C(=O)N[C@@H](CCC(=O)O)C(=O)N[C@@H](CCCCN)C(=O)N[C@@H](CO)C(=O)N[C@@H](CC(N)=O)C(N)=O &field=pIC50 returns 5.47

* * *

Target: Glutamate [NMDA] receptor
Assay: The compound was tested for the inhibitory activity against N-methyl-D-aspartate glutamate receptor from sensorimotor gyri region of human brain by measuring spermine-enhanced [3H]- MK-801 binding
MEASUREMENT KIND: IC50

Worked examples follow.
H-GEEEYQANQELIREKSN-NH2 = 475 nM
H-GEEEYQKNQELIREKSN-NH2 = 47 nM
H-GEEELQEDQELIREKSD-NH2 = 18 nM

Consider the record given below.
IC50 in this record for H-GEEELQEN-NH2 : 58 nM

* * *

Target: Glutamate [NMDA] receptor
Test: The compound was tested for the inhibitory activity against N-methyl-D-aspartate glutamate receptor from superior temporal region of human brain by measuring spermine-enhanced [3H]- MK-801 binding
MEASUREMENT KIND: IC50 (nM)
Number only, in nM; omit the unit.

H-GEEEYQKNQELIREKSN-NH2 = 56
H-GEEEYQANQELIREKSN-NH2 = 570
H-GEEELQEN-NH2 = 23

// field: IC50; key: H-GEEELQEDQELIREKSD-NH2 ; value = 9
